src = ChEMBL document CHEMBL1817566

pIC50: −log10 of the molar value.
Data export: pIC50 values recorded with Glycogen phosphorylase, muscle form (Oryctolagus cuniculus).
Sequence (P00489 whole entry): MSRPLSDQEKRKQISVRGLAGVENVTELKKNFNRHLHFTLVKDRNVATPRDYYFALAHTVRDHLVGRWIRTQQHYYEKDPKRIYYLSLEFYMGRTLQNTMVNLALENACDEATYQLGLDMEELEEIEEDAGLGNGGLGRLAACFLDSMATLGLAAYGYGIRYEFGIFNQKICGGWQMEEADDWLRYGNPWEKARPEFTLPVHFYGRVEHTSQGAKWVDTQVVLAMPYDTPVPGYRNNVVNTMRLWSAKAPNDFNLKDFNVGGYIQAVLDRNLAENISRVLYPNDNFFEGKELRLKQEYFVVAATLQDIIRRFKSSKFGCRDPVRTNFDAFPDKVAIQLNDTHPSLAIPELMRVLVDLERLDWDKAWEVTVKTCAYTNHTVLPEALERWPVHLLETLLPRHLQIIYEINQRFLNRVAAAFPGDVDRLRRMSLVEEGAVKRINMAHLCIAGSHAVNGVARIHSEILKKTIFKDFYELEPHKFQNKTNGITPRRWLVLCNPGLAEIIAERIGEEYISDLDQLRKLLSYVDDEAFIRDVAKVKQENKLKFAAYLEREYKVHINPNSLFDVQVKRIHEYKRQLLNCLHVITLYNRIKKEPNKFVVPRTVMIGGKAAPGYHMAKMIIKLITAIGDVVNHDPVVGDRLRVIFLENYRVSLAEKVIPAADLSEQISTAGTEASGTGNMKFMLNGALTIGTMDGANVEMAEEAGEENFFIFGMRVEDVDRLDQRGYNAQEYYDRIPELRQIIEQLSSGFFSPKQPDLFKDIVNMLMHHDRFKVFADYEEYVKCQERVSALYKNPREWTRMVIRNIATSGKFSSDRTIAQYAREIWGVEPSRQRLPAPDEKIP
attribute_measured: pIC50

| query_smiles | experimental_value |
| --- | --- |
| OC[C@H]1O[C@@H](c2cc(O)cc(Cl)c2O)[C@H](O)[C@@H](O)[C@@H]1O | 4.02 |
| OC[C@H]1O[C@@H](c2cc(O)ccc2O)[C@H](O)[C@@H](O)[C@@H]1O | 3.01 |
